# System: M18 aspartyl aminopeptidase (Plasmodium falciparum 3D7)
# experiment_notes: inhibition of P. falciparum M18 aminopeptidase – biochemical, QFRET, recombinant enzyme, primary screen (AID 1822);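 also: 0% = plate median of test compound wells and 100% = 2 mM ZnCl2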
# experimental_parameters: recombinant PfM18AAP, H-Glu-NHMec fluorogenic cleavage; at 7.35 µM; hits give high values
Out of some 290,000 compounds screened, about 3,500 (1.2%) were called active. What follows is part of a selection rich in actives, with near analogues and random picks from the rest.

compound: O=[N+]([O-])c1ccc(N=Cc2c(O)ccc3ccccc23)cc1
unit_spec: %
inhibition: -0.85

compound: CC(C)(C)c1nnc(N/N=C/c2ccc(O)cc2)n(N)c1=O
unit_spec: %
inhibition: 44.5

compound: O=C(Cc1ccccc1)Nc1ccc(NC(=O)c2cccnc2)cc1
unit_spec: %
inhibition: -1.2

compound: Oc1ccc(N=Cc2c(O)ccc3ccccc23)cc1
unit_spec: %
inhibition: 28.4

compound: CC/C(C)=N/Nc1nc2sc3c(c2c(=O)[nH]1)CC(C)(C)OC3
unit_spec: %
inhibition: 48.8

compound: C/C(=N\NC(=O)c1ccoc1C)c1ccccc1O
unit_spec: %
inhibition: 31.6

compound: Cc1ccc(C)c(NC(=O)CSc2nc3c(oc4ccccc43)c(=O)n2-c2ccccc2)c1
unit_spec: %
inhibition: 2.4

compound: CC(=O)NC(=S)NNC(=O)c1ccc(Br)cc1
unit_spec: %
inhibition: 10.7

compound: COc1cccc(-n2c(N)cc(=O)nc2SCC(=O)Nc2cc(C)on2)c1
unit_spec: %
inhibition: -2.14

compound: Cc1ccc(OCC(=O)Nc2nnc(-c3ccco3)s2)cc1
unit_spec: %
inhibition: -1.67

compound: Cc1ccc(S(=O)(=O)N/N=C\c2cc3c(cc2[N+](=O)[O-])OCO3)cc1
unit_spec: %
inhibition: 51.5

compound: CC(C)(C)C(=O)NNC(=O)c1ccc(Oc2cc(Cl)cc(Cl)c2)o1
unit_spec: %
inhibition: 7.33

compound: CC(=O)N/N=C/c1cc2c(cc1[N+](=O)[O-])OCO2
unit_spec: %
inhibition: 6.95

compound: COc1ccc(OCC(=O)Nc2nnc(-c3ccco3)s2)cc1
unit_spec: %
inhibition: 29.5

compound: Cc1ccccc1CN1CCC(C(=O)Nc2ccc(Oc3cccnc3)cc2)CC1
unit_spec: %
inhibition: 0.98

compound: Cc1ccc(NC2CCCN(C(=O)CCC3(C)CC3)C2)cc1C (stereo not drawn)
unit_spec: %
inhibition: 12.1

compound: COc1ccc(NC(=O)COc2ccc(C(=O)c3ccc(F)cc3)cc2)cc1S(N)(=O)=O
unit_spec: %
inhibition: -0.83

compound: CN(CC(=O)NCCN1CCOCC1)S(=O)(=O)c1ccc(F)cc1
unit_spec: %
inhibition: -0.36

compound: COc1ccccc1OCC(=O)Nc1c2c(nn1-c1ccc(F)cc1)CS(=O)(=O)C2
unit_spec: %
inhibition: -3.07

compound: CC(=O)c1cccc(NC(=O)C2COc3ccccc3O2)c1 (stereo not drawn)
unit_spec: %
inhibition: -8.5

compound: Cc1cccc(N(Cc2ccccc2)C(=O)c2ccccc2F)c1
unit_spec: %
inhibition: 0.68

compound: O=c1c2ccccc2nc(N/N=C/c2ccccc2)n1O
unit_spec: %
inhibition: 3.06

compound: Cc1[nH]n(-c2ccccc2)c(=O)c1/C=N/NC(=O)c1ccoc1C
unit_spec: %
inhibition: -3.48
